// reported koff for each item listed
TARGET_ENTITY: T1, cynoPD-1 His (AcroBiosystems PD1-C5223) (cynomolgus monkey, UniProt B0LAJ3 25-170)
T1 construct: also called cPD-1; cynomolgus PD-1 His-tagged
TEST: SPR, Ab captured, PD-1 analyte

BINDER: z7-XVT458 (antibody, human IgG1, kappa, V domains shown, hIgG1; numbering as for z1; also called GH + V067A + T071V + T073K) VH: QVQLVQSGAEVKKPGASVKVSCKASGYTFTNFYIHWVRQAPGQGLEWMGSIYPNYGDTAYNQKFKDRATMTVDKSTSTAYMELRSLRSDDTAVYYCARGYSYAMDYWGQGTTVTVSS VL: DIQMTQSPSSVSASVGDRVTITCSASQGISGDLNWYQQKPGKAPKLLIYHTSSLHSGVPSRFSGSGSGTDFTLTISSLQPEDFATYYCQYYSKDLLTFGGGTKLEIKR
koff (s⁻¹): 0.00321
--
BINDER: z3-XVT458 (antibody, human IgG1, kappa, V domains shown, hIgG1; numbering as for z1; also called GH + T073K) VH: QVQLVQSGAEVKKPGASVKVSCKASGYTFTNFYIHWVRQAPGQGLEWMGSIYPNYGDTAYNQKFKDRVTMTTDKSTSTAYMELRSLRSDDTAVYYCARGYSYAMDYWGQGTTVTVSS VL: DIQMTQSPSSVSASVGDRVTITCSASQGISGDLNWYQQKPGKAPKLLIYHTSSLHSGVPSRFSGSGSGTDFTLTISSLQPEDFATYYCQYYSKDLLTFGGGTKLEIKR
koff (s⁻¹): 0.00331
--
BINDER: z4-XVT458 (antibody, human IgG1, kappa, V domains shown, hIgG1; numbering as for z1; also called GH + V067A + T071V) VH: QVQLVQSGAEVKKPGASVKVSCKASGYTFTNFYIHWVRQAPGQGLEWMGSIYPNYGDTAYNQKFKDRATMTVDTSTSTAYMELRSLRSDDTAVYYCARGYSYAMDYWGQGTTVTVSS VL: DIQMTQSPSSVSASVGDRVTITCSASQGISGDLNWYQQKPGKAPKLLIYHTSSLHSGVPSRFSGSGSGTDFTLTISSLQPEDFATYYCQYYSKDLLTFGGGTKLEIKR
koff (s⁻¹): 0.00323
--
BINDER: z6-XVT458 (antibody, human IgG1, kappa, V domains shown, hIgG1; numbering as for z1; also called GH + T071V + T073K) VH: QVQLVQSGAEVKKPGASVKVSCKASGYTFTNFYIHWVRQAPGQGLEWMGSIYPNYGDTAYNQKFKDRVTMTVDKSTSTAYMELRSLRSDDTAVYYCARGYSYAMDYWGQGTTVTVSS VL: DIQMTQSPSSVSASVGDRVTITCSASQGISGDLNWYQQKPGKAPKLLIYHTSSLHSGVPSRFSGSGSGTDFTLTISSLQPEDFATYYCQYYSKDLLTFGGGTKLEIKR
koff (s⁻¹): 0.00314
--
BINDER: z2-XVT458 (antibody, IgG1, V domains shown, full hIgG1; also called XVT458-z2; GH + T071V) VH: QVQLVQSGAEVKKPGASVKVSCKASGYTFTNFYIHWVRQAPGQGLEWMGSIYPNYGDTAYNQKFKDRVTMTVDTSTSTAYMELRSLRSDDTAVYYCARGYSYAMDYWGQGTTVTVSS VL: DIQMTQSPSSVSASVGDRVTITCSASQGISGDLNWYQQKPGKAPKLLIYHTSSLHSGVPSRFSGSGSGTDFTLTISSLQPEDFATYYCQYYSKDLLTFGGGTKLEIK
koff (s⁻¹): 0.0031
--
BINDER: z5-XVT458 (antibody, human IgG1, kappa, V domains shown, hIgG1; numbering as for z1; also called GH + V067A + T073K) VH: QVQLVQSGAEVKKPGASVKVSCKASGYTFTNFYIHWVRQAPGQGLEWMGSIYPNYGDTAYNQKFKDRATMTTDKSTSTAYMELRSLRSDDTAVYYCARGYSYAMDYWGQGTTVTVSS VL: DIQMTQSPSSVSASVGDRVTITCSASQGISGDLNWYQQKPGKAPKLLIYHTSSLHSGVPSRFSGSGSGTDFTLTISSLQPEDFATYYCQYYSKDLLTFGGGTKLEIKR
koff (s⁻¹): 0.00336
--
BINDER: z1-XVT458 (antibody, human IgG1, kappa, V domains shown, hIgG1; also called GH + V067A) VH: QVQLVQSGAEVKKPGASVKVSCKASGYTFTNFYIHWVRQAPGQGLEWMGSIYPNYGDTAYNQKFKDRATMTTDTSTSTAYMELRSLRSDDTAVYYCARGYSYAMDYWGQGTTVTVSS VL: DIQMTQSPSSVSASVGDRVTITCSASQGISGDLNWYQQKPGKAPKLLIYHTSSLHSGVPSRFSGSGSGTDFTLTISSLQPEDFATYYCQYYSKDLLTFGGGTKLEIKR
koff (s⁻¹): 0.00359
--
BINDER: z0-XVT458 (antibody, human IgG1, kappa, V domains shown, hIgG1; also called GH + uVL) VH: QVQLVQSGAEVKKPGASVKVSCKASGYTFTNFYIHWVRQAPGQGLEWMGSIYPNYGDTAYNQKFKDRVTMTTDTSTSTAYMELRSLRSDDTAVYYCARGYSYAMDYWGQGTTVTVSS VL: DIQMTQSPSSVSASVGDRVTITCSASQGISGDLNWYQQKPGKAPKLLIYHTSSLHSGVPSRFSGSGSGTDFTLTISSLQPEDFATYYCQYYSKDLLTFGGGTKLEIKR
koff (s⁻¹): 0.00358
